Origin of the recorded values: patent US20100249093A1

- TARGET SYSTEM: human melanocortin-4 receptor (MC-4R) (Homo sapiens)
pIC50: −log10 of the molar value.
Recorded pIC50 by entry

Please review the following examples before continuing.
CC[C@H](COc1cccnc1C1CCN(C(=O)[C@@H](Cc2ccc(Cl)cc2Cl)NC(=O)N2CC[C@H]2CO)CC1)N(C)C: ≥ 7.00
CC[C@H](COc1cccnc1C1CCN(C(=O)[C@@H](Cc2ccc(Cl)cc2Cl)NC(=O)N2CCC(O)(CC3CC3)C2)CC1)N(C)C (some centres unmarked): ≥ 7.00
CN1CCC[C@H](Oc2cccnc2C2CCN(C(=O)[C@@H](Cc3ccc(Cl)cc3Cl)NC(=O)N3CC[C@H](O)C3)CC2)C1: ≥ 7.00
CC[C@@H](CN(C)C)Oc1cccnc1C1CCN(C(=O)[C@@H](Cc2ccc(Cl)cc2Cl)NC(=O)N(C)CC)CC1: ≥ 7.00
CC[C@H](COc1cccnc1C1CCN(C(=O)[C@@H](Cc2ccc(Cl)cc2Cl)NC(=O)N2CCC[C@H](O)C2)CC1)N(C)C: ≥ 7.00

Task: Answer with the recorded pIC50 for the compound listed here: "COC[C@H](CN(C)C)Oc1cccnc1C1CCN(C(=O)[C@@H](Cc2ccc(Cl)cc2Cl)NC(=O)N2CCCC2)CC1"
Output: < 6.00

Task: Look up pIC50 of "CC[C@H](COc1cccnc1C1CCN(C(=O)[C@@H](Cc2ccc(Cl)cc2Cl)NC(=O)N2CCC[C@H]2C(C)(C)O)CC1)N(C)C" and report it.
Output: ≥ 7.00

Task: Tell me its pIC50 given "CC[C@H](COc1cccnc1C1CCN(C(=O)[C@@H](Cc2ccc(Cl)cc2Cl)NC(=O)N2CCC2)CC1)N1CCCC1" as the entry.
Output: ≥ 7.00

Task: Please report the measured pIC50 for "CC[C@H](COc1cc(F)cnc1C1CCN(C(=O)[C@@H](Cc2ccc(Cl)cc2Cl)NC(=O)N2CCCC2)CC1)N(C)C"
Output: ≥ 7.00

Task: For the compound "CC[C@H](COc1cccnc1C1CCN(C(=O)[C@@H](Cc2ccc(Cl)cc2Cl)NC(=O)N2CC(O)C2)CC1)N1CCCC1" , report pIC50.
Output: ≥ 7.00

Task: Quote pIC50 reported for "C[C@H](Oc1cccnc1C1CCN(C(=O)[C@@H](Cc2ccc(Cl)cc2Cl)NC(=O)N2CCCC2)CC1)[C@@H](C)N(C)C" please.
Output: ≥ 7.00

Task: Note down pIC50 recorded for O=C(N[C@H](Cc1ccc(Cl)cc1Cl)C(=O)N1CCC(c2ncccc2OC2CN3CCC2CC3)CC1)N1CCCC1 (some centres unmarked)
Output: 6.00 to 7.00

Task: Fill in pIC50 for record "CC[C@H](COc1cccnc1C1CCN(C(=O)[C@@H](Cc2ccc(Cl)cc2Cl)NC(=O)N2CCC(O)CC2)CC1)N1CCCC1"
Output: ≥ 7.00

* * *

- TARGET SYSTEM: human melanocortin-4 receptor (MC-4R) (Homo sapiens, UniProt P32245)
- Construct: expressed in transfected cells; host or cells: HEK293
- Sequence (P32245 whole entry): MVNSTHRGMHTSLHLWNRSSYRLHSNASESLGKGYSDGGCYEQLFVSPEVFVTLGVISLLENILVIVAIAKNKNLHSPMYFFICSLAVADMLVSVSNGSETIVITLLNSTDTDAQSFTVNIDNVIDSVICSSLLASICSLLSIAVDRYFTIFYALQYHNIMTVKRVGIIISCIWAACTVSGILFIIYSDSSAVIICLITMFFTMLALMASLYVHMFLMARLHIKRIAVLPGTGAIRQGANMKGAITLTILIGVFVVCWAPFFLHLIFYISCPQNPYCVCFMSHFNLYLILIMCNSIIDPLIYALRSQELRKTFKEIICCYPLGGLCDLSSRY
- METHOD NOTES: Functional assay: agonistic activity, cAMP production in membrane preparations compared with NDP-alpha-MSH, fluorescence polarization
- Format: biochemical
- CONDITION INFO: cAMP produced compared to stimulation with NDP-alpha-MSH; read-out: % activation functional assay
ENDPOINT NAME: Emax (%)
Numbers only here, please. The scale is %.

CC[C@H](COc1ccncc1C1CCN(C(=O)[C@@H](Cc2ccc(Cl)cc2Cl)NC(=O)N2CCCC2)CC1)N(C)C: 0
CC[C@H](COc1cccnc1C1CCN(C(=O)[C@@H](Cc2ccc(Cl)cc2Cl)NC(=O)N2CC[C@@H](CO)C2)CC1)N(C)C: -8
CN1CCN(Cc2cccnc2C2CCN(C(=O)[C@@H](Cc3ccc(Cl)cc3Cl)NC(=O)N3CCCC3)CC2)CC1: 0
CC[C@H](COc1cccnc1C1CCN(C(=O)[C@@H](Cc2ccc(Cl)cc2Cl)NC(=O)N2C[C@@H](C)O[C@@H](C)C2)CC1)N1CCCC1: 0
CC[C@H](COc1cccnc1C1CCN(C(=O)[C@@H](Cc2ccc(Cl)cc2Cl)NC(=O)N(C)CC2(C)COC2)CC1)N(C)C: -2

// switching to the query molecule
Task: Return Emax (reported value) for this molecule: "CC[C@H](COc1cccnc1C1CCN(C(=O)[C@@H](Cc2ccc(Cl)cc2Cl)NC(=O)N2CC(O)(C(F)(F)F)C2)CC1)N(C)C"
Output: -5

* * *

- TARGET SYSTEM: human melanocortin-4 receptor (MC-4R) (Homo sapiens)
- Construct: expressed in transfected cells; host or cells: HEK293
- METHOD NOTES: Functional assay: agonistic activity, cAMP production in membrane preparations compared with NDP-alpha-MSH, fluorescence polarization
- Format: biochemical
- CONDITION INFO: cAMP produced compared to stimulation with NDP-alpha-MSH; read-out: % activation functional assay
Examples of compounds with documented Emax follow.
// return numeric value only (unit: %, not printed)

Previously resolved entries follow.
CN1CC(Oc2cccnc2C2CCN(C(=O)[C@@H](Cc3ccc(Cl)cc3Cl)NC(=O)N3CCCC3)CC2)C1: -1
C[C@H](Oc1cccnc1C1CCN(C(=O)[C@@H](Cc2ccc(Cl)cc2Cl)NC(=O)N2CCCC2)CC1)[C@@H](C)N(C)C: 0
CC[C@@H](CN1CCCC1)Oc1ccncc1C1CCN(C(=O)[C@@H](Cc2ccc(Cl)cc2Cl)NC(=O)N2CCCC2)CC1: 0

# evaluate next
Task: Indicate the recorded Emax value for this compound: "C[C@@H](CN1CCCC1)Oc1cccnc1C1CCN(C(=O)[C@@H](Cc2ccc(Cl)cc2Cl)NC(=O)N2CCCC2)CC1"
Output: 0

* * *

- TARGET SYSTEM: human melanocortin-4 receptor (MC-4R) (Homo sapiens)
- Construct: expressed in transfected cells; host or cells: HEK293
- METHOD NOTES: Functional assay: agonistic activity, cAMP production in membrane preparations compared with NDP-alpha-MSH, fluorescence polarization
- Type: biochemical
- CONDITION INFO: cAMP produced compared to stimulation with NDP-alpha-MSH; read-out: % activation functional assay
As shown below, each of these molecules has a reported Emax value.
Value expressed in %; do not type the unit.

Worked cases, answers included:
CC[C@H](COc1cccnc1C1CCN(C(=O)[C@@H](Cc2ccc(Cl)cc2Cl)NC(=O)N2CC(C)(O)C2)CC1)N1CCCC1 [Example 99]: 0
C[C@@H](CCN(C)C)Oc1cccnc1C1CCN(C(=O)[C@@H](Cc2ccc(Cl)cc2Cl)NC(=O)N2CCCC2)CC1 [Example 62]: -10
CC[C@H](COc1cccnc1C1CCN(C(=O)[C@@H](Cc2ccc(Cl)cc2Cl)NC(=O)N(C)CC(C)(C)O)CC1)N(C)C [Example 111]: -23
CC[C@H](COc1cc(C)cnc1C1CCN(C(=O)[C@@H](Cc2ccc(Cl)cc2Cl)NC(=O)N2CCCC2)CC1)N1CCCC1 [Example 24]: 0
CC[C@H](COc1cccnc1C1CCN(C(=O)[C@@H](Cc2ccc(Cl)cc2Cl)NC(=O)N2CC[C@@H](OC)C2)CC1)N(C)C [Example 108]: 0

Task: Check the records and state Emax for CC[C@H](COc1cccnc1C1CCN(C(=O)[C@@H](Cc2ccc(Cl)cc2Cl)NC(=O)N2C[C@H]3C[C@H]3C2)CC1)N1CCCC1 [Example 97]
Output: 8

Task: State its Emax: CC[C@H](COc1cccnc1C1CCN(C(=O)[C@@H](Cc2ccc(Cl)cc2Cl)NC(=O)N2CCC(F)(F)CC2)CC1)N1CCCC1 [Example 83]
Output: 0

Task: Supply recorded Emax for CN1CCN(C)CC(Oc2cccnc2C2CCN(C(=O)[C@@H](Cc3ccc(Cl)cc3Cl)NC(=O)N3CCCC3)CC2)C1 [Example 56] here.
Output: -5

Task: Report measured Emax; entry is O=C(N[C@H](Cc1ccc(Cl)cc1Cl)C(=O)N1CCC(c2ncccc2OC2CN3CCC2CC3)CC1)N1CCCC1 (stereo partly shown) [Example 29]
Output: 0

* * *

Overview of recorded Emax for various compounds
- TARGET SYSTEM: human melanocortin-4 receptor (MC-4R) (Homo sapiens, UniProt P32245)
- Construct: expressed in transfected cells; host or cells: HEK293
- METHOD NOTES: Functional assay: agonistic activity, cAMP production in membrane preparations compared with NDP-alpha-MSH, fluorescence polarization
- Assay type: biochemical
- CONDITION INFO: cAMP produced compared to stimulation with NDP-alpha-MSH; read-out: % activation functional assay
State the answer as a number, implicitly in %.

Examples with answers:
CC[C@H](COc1cccnc1C1CCN(C(=O)[C@@H](Cc2ccc(Cl)cc2Cl)NC(=O)N(C)CC)CC1)N(C)C: 5
CC[C@H](COc1cccnc1C1CCN(C(=O)[C@@H](Cc2ccc(Cl)cc2Cl)NC(=O)N2CC[C@H](OC)C2)CC1)N(C)C: -11
CN1CCC[C@H]1COc1cccnc1C1CCN(C(=O)[C@@H](Cc2ccc(Cl)cc2Cl)NC(=O)N2CCCC2)CC1: -4
CC[C@H](COc1cccnc1C1CCN(C(=O)[C@@H](Cc2ccc(Cl)cc2Cl)NC(=O)N2CCC(O)CC2)CC1)N1CCCC1: 0
COC[C@H](CN(C)C)Oc1cccnc1C1CCN(C(=O)[C@@H](Cc2ccc(Cl)cc2Cl)NC(=O)N2CCCC2)CC1: -13

Task: Identify measured Emax obtained with human melanocortin-4 receptor (MC-4R) (Homo sapiens, UniProt P32245) for "CC[C@H](COc1cccnc1C1CCN(C(=O)[C@@H](Cc2ccc(Cl)cc2Cl)NC(=O)N2CC[C@@H](OC(C)=O)C2)CC1)N(C)C" .
Output: 5

Task: Write down measured Emax (human melanocortin-4 receptor (MC-4R) (Homo sapiens, UniProt P32245)) for this compound. "CC[C@H](COc1cccnc1C1CCN(C(=O)[C@@H](Cc2ccc(C)cc2C)NC(=O)N2CCCC2)CC1)N1CCCC1"
Output: -2

Task: State Emax (human melanocortin-4 receptor (MC-4R) (Homo sapiens, UniProt P32245)) of "CC(C)[C@H](COc1cccnc1C1CCN(C(=O)[C@@H](Cc2ccc(Cl)cc2Cl)NC(=O)N2CCCC2)CC1)N(C)C" .
Output: -8

Task: // fetch Emax for "CC[C@H](COc1cccnc1C1CCN(C(=O)[C@@H](Cc2ccc(Cl)cc2Cl)NC(=O)N2CC[C@@H](N)C2)CC1)N(C)C" ; system: human melanocortin-4 receptor (MC-4R) (Homo sapiens, UniProt P32245)
Output: -2

Task: Fill in Emax for "CC[C@H](COc1cc(Cl)cnc1C1CCN(C(=O)[C@@H](Cc2ccc(C)cc2C)NC(=O)N2CCCC2)CC1)N(C)C" tested with human melanocortin-4 receptor (MC-4R) (Homo sapiens, UniProt P32245).
Output: -15

Task: Answer with Emax of "CN1CCN(Cc2cc(Cl)cnc2C2CCN(C(=O)[C@@H](Cc3ccc(Cl)cc3Cl)NC(=O)N3CCCC3)CC2)CC1" measured for human melanocortin-4 receptor (MC-4R) (Homo sapiens, UniProt P32245).
Output: -13

Task: Report its Emax with human melanocortin-4 receptor (MC-4R) (Homo sapiens, UniProt P32245) as the test system: "CC[C@H](COc1cccnc1C1CCN(C(=O)[C@@H](Cc2ccc(Cl)cc2Cl)NC(=O)N(C)CCO)CC1)N1CCCC1"
Output: 0

Task: Give Emax for "CN1CCN(CCOc2cccnc2C2CCN(C(=O)[C@@H](Cc3ccc(Cl)cc3Cl)NC(=O)N3CCCC3)CC2)CC1" tested on human melanocortin-4 receptor (MC-4R) (Homo sapiens, UniProt P32245).
Output: -2
